Just for reference, the supplement of paper PMC10307832 is where these values come from.

Would you kindly list relative viability for each of these molecules?
test system: BEN; experiment: relative viability (nuclei count vs DMSO), 5 days (fraction); higher = more cells survive; conditions: first compound 2.53 µM
Response field accepts a number only; no unit should be typed.

O=c1[nH]c2ccccc2n1C1CCN(CCCC(c2ccc(F)cc2)c2ccc(F)cc2)CC1 [Pimozide] + COc1cc2c(Oc3ccc(NC(=O)C4(C(=O)Nc5ccc(F)cc5)CC4)cc3F)ccnc2cc1OCCCN1CCOCC1 [Foretinib] (partner 0.25 µM) yielded relative viability of 0.581

Value of relative viability reported for the molecule Cc1cnc(-c2cnc(NCCNc3ccc(C#N)cn3)nc2-c2ccc(Cl)cc2Cl)[nH]1 + Cc1nc(NC(=O)N2CCC[C@H]2C(N)=O)sc1-c1ccnc(C(C)(C)C(F)(F)F)c1 [Alpelisib] (partner 2 µM) is 1.04

The molecule Cc1cnc(-c2cnc(NCCNc3ccc(C#N)cn3)nc2-c2ccc(Cl)cc2Cl)[nH]1 + O=C(CCCCCCC(=O)Nc1ccccc1)NO [Vorinostat] (partner 1 µM) showed relative viability equal to 0.559

// relative viability value for Cc1cnc(-c2cnc(NCCNc3ccc(C#N)cn3)nc2-c2ccc(Cl)cc2Cl)[nH]1 + CC(C)C[C@H](NC(=O)[C@H](Cc1ccccc1)NC(=O)c1cnccn1)B(O)O [Bortezomib] (partner 0.002 µM) : 0.797
